Sourced from paper PMC3495079

molecular target: ScDcpS (Saccharomyces cerevisiae, UniProt Q06151)
Sequence (Q06151 whole entry): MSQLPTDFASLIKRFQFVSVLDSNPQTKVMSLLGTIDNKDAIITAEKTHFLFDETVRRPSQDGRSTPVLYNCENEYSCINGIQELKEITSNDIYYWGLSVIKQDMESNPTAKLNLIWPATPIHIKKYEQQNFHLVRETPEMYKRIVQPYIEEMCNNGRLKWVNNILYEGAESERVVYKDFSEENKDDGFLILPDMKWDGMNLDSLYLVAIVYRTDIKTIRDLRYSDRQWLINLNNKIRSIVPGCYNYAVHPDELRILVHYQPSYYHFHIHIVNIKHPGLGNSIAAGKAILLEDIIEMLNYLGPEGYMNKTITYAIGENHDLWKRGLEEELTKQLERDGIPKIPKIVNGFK
REPORTED PROPERTY: IC50 (µM)
Express it in µM; write the number only.

Which IC50 is reported with ScDcpS (Saccharomyces cerevisiae, UniProt Q06151) for this entry: C[n+]1cn([C@@H]2O[C@H](COP(=O)(O)OP(=O)([O-])O)[C@@H](O)[C@H]2O)c2nc(N)[nH]c(=O)c21 [m^7GDP, 7-methylguanosine diphosphate] ?
3.95

---

Target sequence: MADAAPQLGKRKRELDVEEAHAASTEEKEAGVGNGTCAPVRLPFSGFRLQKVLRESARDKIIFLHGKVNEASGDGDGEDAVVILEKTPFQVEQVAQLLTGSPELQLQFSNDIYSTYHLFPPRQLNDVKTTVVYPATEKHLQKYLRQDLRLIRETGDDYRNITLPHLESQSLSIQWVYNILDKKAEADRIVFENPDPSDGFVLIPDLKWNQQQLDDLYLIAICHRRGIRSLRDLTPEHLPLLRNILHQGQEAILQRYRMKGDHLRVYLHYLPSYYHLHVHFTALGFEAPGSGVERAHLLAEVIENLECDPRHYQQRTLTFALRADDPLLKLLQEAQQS
REPORTED PROPERTY: IC50 (µM)
Express it in µM; write the number only.

Which IC50 value belongs to C[n+]1cn([C@@H]2O[C@H](COP(=O)(O)OP(=O)([O-])O)[C@@H](O)[C@H]2O)c2nc(N)[nH]c(=O)c21 [m^7GDP, 7-methylguanosine diphosphate] ?
4.17

---

molecular target: ScDcpS (Saccharomyces cerevisiae, UniProt Q06151)
REPORTED PROPERTY: pKi
Please keep in mind that pKi is minus log10 of the molar concentration; only the number is needed.

Which pKi is reported with ScDcpS (Saccharomyces cerevisiae, UniProt Q06151) for this entry: C[n+]1cn([C@@H]2O[C@H](COP(=O)(O)OP(=O)([O-])O)[C@@H](O)[C@H]2O)c2nc(N)[nH]c(=O)c21 [m^7GDP, 7-methylguanosine diphosphate] ?
7.44
